# System: Rattus norvegicus
# assayComment: Distribution of radioactivity was determined in heart at 24 after intravenous administration of [125I]-labeled 2-oleoglycerol 1,3-Bis-[omega-(3-amino-2,4,6-triiodophenyl)alkanoates] in rats
# Assay type: ADME, organism-based
# cond: in vivo
So I've got a bunch of compounds here, and I need their Distribution of radioactivity values.
Please provide the amount together with its unit, number first.

Please respond with reported Distribution of radioactivity (system Rattus norvegicus) for CCCCCCCC/C=C/CCCCCCCC(=O)OC(COC(=O)CCCCCCc1c(I)cc(I)c(N)c1I)COC(=O)CCCCCCc1c(I)cc(I)c(N)c1I .
0.1 % dose/g

Identify measured Distribution of radioactivity obtained with Rattus norvegicus for CCCCCCCC/C=C/CCCCCCCC(=O)OC(COC(=O)Cc1c(I)cc(I)c(N)c1I)COC(=O)Cc1c(I)cc(I)c(N)c1I .
0.03 % dose/g

Provide Distribution of radioactivity, system Rattus norvegicus, entry CCCCCCCC/C=C/CCCCCCCC(=O)OC(COC(=O)CCCCCc1c(I)cc(I)c(N)c1I)COC(=O)CCCCCc1c(I)cc(I)c(N)c1I
0.07 % dose/g

Answer with Distribution of radioactivity of CCCCCCCC/C=C/CCCCCCCC(=O)OC(COC(=O)CCCCc1c(I)cc(I)c(N)c1I)COC(=O)CCCCc1c(I)cc(I)c(N)c1I measured for Rattus norvegicus.
0.07 % dose/g

Give Distribution of radioactivity for this entry on Rattus norvegicus: CCCCCCCC/C=C/CCCCCCCC(=O)OC(COC(=O)C(CC)Cc1c(I)cc(I)c(N)c1I)COC(=O)C(CC)Cc1c(I)cc(I)c(N)c1I (stereo not given)
0.06 % dose/g

====

I'd appreciate it if you could supply Distribution of radioactivity values for the items below.
# Test system: Rattus norvegicus
# assayComment: Distribution of radioactivity was determined in blood at 3h after intravenous administration of [125I]-labeled 2-oleoglycerol 1,3-Bis-[omega-(3-amino-2,4,6-triiodophenyl)alkanoates] in rats
# Type: ADME, organism-based
# cond: in vivo
Give the value in % dose/g but do not write % dose/g after it.

Determine from records and report Distribution of radioactivity for CCCCCCCC/C=C/CCCCCCCC(=O)OC(COC(=O)CCCCCc1c(I)cc(I)c(N)c1I)COC(=O)CCCCCc1c(I)cc(I)c(N)c1I
0.2

Name the recorded Distribution of radioactivity of the compound listed here: CCCCCCCC/C=C/CCCCCCCC(=O)OC(COC(=O)CCCCc1c(I)cc(I)c(N)c1I)COC(=O)CCCCc1c(I)cc(I)c(N)c1I
0.08

# return recorded Distribution of radioactivity for input CCCCCCCC/C=C/CCCCCCCC(=O)OC(COC(=O)C(CC)Cc1c(I)cc(I)c(N)c1I)COC(=O)C(CC)Cc1c(I)cc(I)c(N)c1I (stereo not given)
0.02

Please give measured Distribution of radioactivity of the following entry: CCCCCCCC/C=C/CCCCCCCC(=O)OC(COC(=O)CCCCCCc1c(I)cc(I)c(N)c1I)COC(=O)CCCCCCc1c(I)cc(I)c(N)c1I
0.28

Given the compound CCCCCCCC/C=C/CCCCCCCC(=O)OC(COC(=O)Cc1c(I)cc(I)c(N)c1I)COC(=O)Cc1c(I)cc(I)c(N)c1I , write its reported Distribution of radioactivity.
0.04

====

# Tested on: Rattus norvegicus
# assayComment: Distribution of radioactivity was determined in plasma at 30 min after intravenous administration of [125I]-labeled 2-oleoglycerol 1,3-Bis-[omega-(3-amino-2,4,6-triiodophenyl)alkanoates] in rats
# Assay type: ADME, organism-based
# cond: in vivo, 0.5 h
Hi! Could you tag entries with Distribution of radioactivity below 0.7 % dose/g as True, and those at or above as False? Much appreciated.

Input CCCCCCCC/C=C/CCCCCCCC(=O)OC(COC(=O)Cc1c(I)cc(I)c(N)c1I)COC(=O)Cc1c(I)cc(I)c(N)c1I ; condition: Distribution of radioactivity strictly below 0.7 % dose/g. Does it hold?
False

Consider CCCCCCCC/C=C/CCCCCCCC(=O)OC(COC(=O)CCCCCc1c(I)cc(I)c(N)c1I)COC(=O)CCCCCc1c(I)cc(I)c(N)c1I . Does its Distribution of radioactivity lie strictly below 0.7 % dose/g?
True

Bench note: check whether CCCCCCCC/C=C/CCCCCCCC(=O)OC(COC(=O)C(CC)Cc1c(I)cc(I)c(N)c1I)COC(=O)C(CC)Cc1c(I)cc(I)c(N)c1I (stereo not given) shows Distribution of radioactivity below 0.7 % dose/g
True

Consider CCCCCCCC/C=C/CCCCCCCC(=O)OC(COC(=O)CCCCCCc1c(I)cc(I)c(N)c1I)COC(=O)CCCCCCc1c(I)cc(I)c(N)c1I . Does its Distribution of radioactivity lie strictly below 0.7 % dose/g?
False

Please let me know if CCCCCCCC/C=C/CCCCCCCC(=O)OC(COC(=O)CCCCc1c(I)cc(I)c(N)c1I)COC(=O)CCCCc1c(I)cc(I)c(N)c1I shows Distribution of radioactivity below 0.7 % dose/g.
True

====

Answer each item with its documented Distribution of radioactivity.
# Tested on: Rattus norvegicus
# assayComment: Distribution of radioactivity was determined in spleen at 3h after intravenous administration of 1,3-Disubstituted Triacylglycerols in rats
# Type: ADME, organism-based
# cond: in vivo
I only need the number, in % dose/organ, no unit after it.

Return value of Distribution of radioactivity for input CCCCCCCC/C=C/CCCCCCCC(=O)OC(COC(=O)CCCCc1c(I)cc(I)c(N)c1I)COC(=O)CCCCc1c(I)cc(I)c(N)c1I , no commentary.
8

Specify measured Distribution of radioactivity for CCCCCCCC/C=C/CCCCCCCC(=O)OC(COC(=O)CCCCCCc1c(I)cc(I)c(N)c1I)COC(=O)CCCCCCc1c(I)cc(I)c(N)c1I .
8.2

Name the recorded Distribution of radioactivity of the compound listed here: CCCCCCCC/C=C/CCCCCCCC(=O)OC(COC(=O)Cc1c(I)cc(I)c(N)c1I)COC(=O)Cc1c(I)cc(I)c(N)c1I
14.5

Return value of Distribution of radioactivity for input CCCCCCCC/C=C/CCCCCCCC(=O)OC(COC(=O)C(CC)Cc1c(I)cc(I)c(N)c1I)COC(=O)C(CC)Cc1c(I)cc(I)c(N)c1I (stereo not given) , no commentary.
11.3

Report Distribution of radioactivity, nothing else, for this compound: CCCCCCCC/C=C/CCCCCCCC(=O)OC(COC(=O)CCCCCc1c(I)cc(I)c(N)c1I)COC(=O)CCCCCc1c(I)cc(I)c(N)c1I
11.3

====

# System: Rattus norvegicus
# assayComment: Polyacrylamide Gel Electrophoresis (PAGE) to determined the concentration of high density lipoprotein (HDL) in rats after iv administration of [125I]-labeled 2-Oleolyl 1,3-disubstituted triglycerols was reported
# Type: ADME, organism-based
# cond: in vivo
Provide the reported Radioactivity of each item.
The reply should be a number in %, with the unit left off.

Respond only with Radioactivity recorded for CCCCCCCC/C=C/CCCCCCCC(=O)OC(COC(=O)C(CC)Cc1c(I)cc(I)c(N)c1I)COC(=O)C(CC)Cc1c(I)cc(I)c(N)c1I (stereo not given)
2.5

Report Radioactivity, nothing else, for this molecule: CCCCCCCC/C=C/CCCCCCCC(=O)OC(COC(=O)CCCCc1c(I)cc(I)c(N)c1I)COC(=O)CCCCc1c(I)cc(I)c(N)c1I
5.5

Retrieve Radioactivity measured for CCCCCCCC/C=C/CCCCCCCC(=O)OC(COC(=O)CCCCCc1c(I)cc(I)c(N)c1I)COC(=O)CCCCCc1c(I)cc(I)c(N)c1I and print it.
7

Return value of Radioactivity for input CCCCCCCC/C=C/CCCCCCCC(=O)OC(COC(=O)CCCCCCc1c(I)cc(I)c(N)c1I)COC(=O)CCCCCCc1c(I)cc(I)c(N)c1I , no commentary.
0.3

Output Radioactivity of CCCCCCCC/C=C/CCCCCCCC(=O)OC(COC(=O)Cc1c(I)cc(I)c(N)c1I)COC(=O)Cc1c(I)cc(I)c(N)c1I
0.7

====

# Test system: Rattus norvegicus
# assayComment: Analysis of lipid-soluble radioactivity in liver 24 hour after iv administration of [125I]-labeled 2-Oleoyl 1,3-disubstituted Triacylglycerols and represented as % CHCl3/CH3OH from rat
# Format: ADME, organism-based
# cond: in vivo
valueType: Lipid-soluble radioactivity

Respond only with Lipid-soluble radioactivity recorded for CCCCCCCC/C=C/CCCCCCCC(=O)OC(COC(=O)Cc1c(I)cc(I)c(N)c1I)COC(=O)Cc1c(I)cc(I)c(N)c1I
59.5

Specify reported Lipid-soluble radioactivity for the compound shown: CCCCCCCC/C=C/CCCCCCCC(=O)OC(COC(=O)CCCCc1c(I)cc(I)c(N)c1I)COC(=O)CCCCc1c(I)cc(I)c(N)c1I
88.8

Give recorded Lipid-soluble radioactivity. CCCCCCCC/C=C/CCCCCCCC(=O)OC(COC(=O)CCCCCCc1c(I)cc(I)c(N)c1I)COC(=O)CCCCCCc1c(I)cc(I)c(N)c1I
30.2

Answer with the recorded Lipid-soluble radioactivity for the compound listed here: CCCCCCCC/C=C/CCCCCCCC(=O)OC(COC(=O)CCCCCc1c(I)cc(I)c(N)c1I)COC(=O)CCCCCc1c(I)cc(I)c(N)c1I
90.3

Retrieve Lipid-soluble radioactivity measured for CCCCCCCC/C=C/CCCCCCCC(=O)OC(COC(=O)C(CC)Cc1c(I)cc(I)c(N)c1I)COC(=O)C(CC)Cc1c(I)cc(I)c(N)c1I (stereo not given) and print it.
93.7
